Taken from the SangsterLogP compilation.

observed-property: logP

// known answers, use as guide
| compound | logP |
| --- | --- |
| CCN1CCCC1CNC(=O)c1cc(S(=O)(=O)CC)ccc1OC (centres undefined) | 1.06 |
| c1ccc(-c2ccccc2)cc1 | 3.98 |
| Cl[C@H]1[C@H](Cl)[C@@H](Cl)[C@@H](Cl)[C@H](Cl)[C@H]1Cl | 3.72 |

Note: attention shifts to another entry.
*Q* // returns reported logP for input C=CCN1CC[C@]23c4c5ccc(O)c4O[C@H]2[C@@H](O)C=C[C@H]3[C@H]1C5
*A* 1.86

###

The entries below are paired with their reported logP.
Write no unit; give the number alone.

Example results:
| compound | readout-value |
| --- | --- |
| CN/C(=C\[N+](=O)[O-])NCCSCc1ccc(CN(C)C)o1 | 0.27 |
| CCCSc1nnc(C(C)C)c(=O)n1N | 2.12 |
| NC(=O)c1ccc(Br)cc1 | 1.76 |
| Cc1ccccc1N | 1.32 |

*Q* Need logP, item Cc1cnc(NC(=O)C2=C(O)c3ccccc3S(=O)(=O)N2C)s1
*A* 3.43

*Q* Form field: reported logP of COc1ccc(C(=O)O)cc1
*A* 1.96

###

Classify by logP. Ranges: bottom bin (below 1), middle bin (1 to below 2), top bin (2 or more)

Would you please look over these solved cases?
| structure-smiles | answer-label |
| --- | --- |
| Cc1ccnc(NS(=O)(=O)c2ccc(N)cc2)n1 | bottom bin |
| O=[N+]([O-])/C=C/c1cc([N+](=O)[O-])ccc1Cl | top bin |
| O=c1ccn([C@@H]2O[C@H](CO)[C@@H](O)[C@H]2O)c(=O)[nH]1 | bottom bin |
| Nc1ccccc1-c1ccccc1 | top bin |
| OCCN1CCN(CCCN2c3ccccc3Sc3ccc(C(F)(F)F)cc32)CC1 | top bin |

*Q* Assign a category based on measured logP for CC[C@H](C)[C@H](N)C(=O)O and give only the class name.
*A* bottom bin

*Q* Textbook exercise: identify the category of the compound given here, Cc1cccc(C)n1 , according to its measured value.
*A* middle bin

###

Kindly return y if reported logP is no lower than 1; return n if it is lower.

*Q* Say whether COc1cccc([N+](=O)[O-])c1 shows logP of 1 or more.
*A* y

*Q* // inclusive: logP at least 1? input: c1ccc2occc2c1
*A* y

###

Short version: logP at least 2 is satisfied, less is not satisfied.

Some entries whose results are on file:
| compound | answer-label |
| --- | --- |
| Nc1ccc2cc3ccccc3nc2c1 | satisfied |
| Cn1cnc([N+](=O)[O-])c1Sc1ncnc2nc[nH]c12 | not satisfied |
| CN1C(=O)C(=O)c2ccccc21 | not satisfied |
| C[N+]1([O-])C2CCC1CC(OC(=O)C(CO)c1ccccc1)C2 (stereo not given) | not satisfied |

*Q* Given the entry Cc1cn([C@H]2C[C@H](F)[C@@H](CO)O2)c(=O)[nH]c1=O , answer whether its logP meets or surpasses 2.
*A* not satisfied

*Q* // inclusive: logP at least 2? input: CNc1ccc(S(N)(=O)=O)cc1
*A* not satisfied

*Q* Determine whether this compound has logP no lower than 2: O=C1CN(/N=C/c2ccc([N+](=O)[O-])o2)C(=O)N1
*A* not satisfied

*Q* Could you tell me if the measured logP of OCCN1CCN(CC/C=C2\c3ccccc3Sc3ccc(C(F)(F)F)cc32)CC1 reaches 2 or more?
*A* satisfied

*Q* Assess whether reported logP for CCCl sits at 2 or higher.
*A* not satisfied

*Q* # check: logP of CC(C)(C)NC[C@H](O)COc1ccccc1C1CCCC1 is greater than or equal to 2
*A* satisfied

###

Hi! Just check whether logP is below 0.9. Below gives Condition met, equal or above gives Condition not met.

| compound | answer-label |
| --- | --- |
| FC(F)(F)c1ccc2cccnc2c1 | Condition not met |
| O=C1CNC(=O)N1 | Condition met |
| c1cnccn1 | Condition met |

*Q* Hi there! Is logP for NC(=O)C(c1ccccc1)c1ccccn1 (stereo not given) below 0.9, do you know?
*A* Condition met

*Q* Strictly below 0.9: is that where logP of OC(c1ccccc1)C1CC1 (stereo not given) sits?
*A* Condition not met

*Q* Take the compound CN1CC[C@]23c4c5ccc(O)c4O[C@H]2C(=O)CC[C@@]3(O)[C@H]1C5 and say whether its logP is less than 0.9.
*A* Condition met

*Q* Does the reported logP of the following compound sit strictly below 0.9? Fc1ccccc1F
*A* Condition not met

*Q* Determine whether this compound shows logP lower than 0.9 (ties excluded): CNC(=O)Oc1cccc(OC)c1
*A* Condition not met

*Q* Strictly below 0.9: is that where logP of CC(C)(C)NCC(O)COc1nsnc1N1CCOCC1 (stereo not given) sits?
*A* Condition not met

*Q* Determine whether this compound shows logP lower than 0.9 (ties excluded): COc1cccc(C=O)c1O
*A* Condition not met

*Q* Would you kindly verify if logP of CCCC is strictly less than 0.9?
*A* Condition not met

*Q* Determine whether this compound shows logP lower than 0.9 (ties excluded): CCCCCCCCCCCC(=O)O
*A* Condition not met

*Q* I'd appreciate it if you could check whether O=C(O)COc1ccccc1[N+](=O)[O-] has logP smaller than 0.9.
*A* Condition not met

*Q* Confirm or reject: logP of NNC(=O)c1ccncc1 lies strictly below 0.9
*A* Condition met

*Q* Please state whether logP is below 0.9 for OC1OC[C@@H](O)[C@@H](O)[C@H]1O (stereo not given in full)
*A* Condition met

*Q* Field: below-cutoff. Rule: recorded logP strictly less than 0.9. Subject: O=[N+]([O-])c1ccc2ccc[n+]([O-])c2c1
*A* Condition met

*Q* logP under 0.9? Item: O=NN1CCOCC1
*A* Condition met

*Q* Find out if reported logP for O=Nc1ccc2ccccc2c1O is less than 0.9
*A* Condition not met

###

observed-property: logP

// worked examples, logP included
| molecule | logP |
| --- | --- |
| COC(=O)c1cccnc1 | 0.83 |
| O=[N+]([O-])c1ccc(N=C=S)cc1 | 3.62 |
| CC(=O)OCC1=C(C(=O)O)N2C(=O)[C@@H](NC(=O)Cc3cccs3)[C@H]2SC1 | 0 |
| CN1C(=O)NC(=O)C(C)(C2=CCCCC2)C1=O (configuration not stated) | 1.98 |
| CN(C)C(=O)Nc1ccccc1 | 0.98 |
| CCC(=O)c1cccc(OC(=O)NC)c1 | 1.49 |
| CC(C)NCC(O)COc1cccc2[nH]ccc12 (configuration not stated) | 1.75 |
| O=C1NC(=O)C(c2ccccc2)(c2ccccc2)C(=O)N1 | 1.96 |

*Q* What logP value was documented for this molecule, CC1(C)S[C@@H]2[C@H](NC(=O)COc3ccccc3)C(=O)N2[C@H]1C(=O)O ?
*A* 2.09

*Q* Look up logP for this molecule: FC(F)(Cl)C(F)(F)Cl
*A* 2.82

*Q* Would you kindly share the measured logP for N#Cc1ccccn1 ?
*A* 0.45

###

observed-property: logP
Just the number, please, no unit after it.

Below are worked cases with known answers.
| structure-smiles | logP |
| --- | --- |
| c1ccc2c(c1)ccc1ccccc12 | 4.46 |
| Brc1cnc2ccccc2c1 | 3.03 |
| COc1ccc(C(C)=O)cc1 | 1.74 |
| FC(F)(F)c1nc2cc(Cl)c(Cl)cc2[nH]1 | 3.49 |
| NCc1cccnc1 | -0.32 |
| COC(=O)[C@H]1[C@@H](OC(=O)c2ccccc2)C[C@@H]2CC[C@H]1N2C | 2.3 |
| N#Cc1ccc(O)cc1 | 1.6 |
| CCCCNCCCC | 2.83 |

*Q* Look at this molecule and give its reported logP. O=C(Nc1ccccc1)c1ccccc1O
*A* 3.27

###

observed-property: logP
Form rule: numeric answer, no unit written next to it.

| structure-smiles | logP |
| --- | --- |
| O=C(O)COc1ccccc1Cl | 1.86 |

*Q* Fill in: logP of CCOc1ccc([N+](=O)[O-])cc1 is ___
*A* 2.53

*Q* So what does the record say about logP for CCC=Cc1ccccc1[N+](=O)[O-] ?
*A* 2.86

*Q* Please report the recorded logP for c1ccc(Cc2ccccc2)cc1 .
*A* 4.14

*Q* Which logP value is on record for O=C1CCCCCN1 ?
*A* -0.19

###

Reported values of logP for individual entries
The answer should be a number; do not append a unit.

Completed entries (count: 5):
| compound | readout-value |
| --- | --- |
| N#Cc1ccc(C(=O)O)cc1 | 1.56 |
| CC(CN1CCOCC1)C(C(=O)N1CCCC1)(c1ccccc1)c1ccccc1 (stereo not given) | 3.61 |
| CCCCNC(=O)NCCCC | 1.4 |
| c1ccnnc1 | -0.72 |
| Nc1ccn(C2C=CC(CO)O2)c(=O)n1 (stereo not given) | -1.55 |

*Q* # get_value(readout='logP', item= CCCCNCCC )
*A* 2.12

*Q* Item c1ccc2c(c1)CCC2 has what recorded logP?
*A* 3.18
